assay.overview: Binding affinity to human IMPDH
pKi: −log10 of the molar value.

{"smiles": "COc1c(C)c2c(c(O)c1C/C=C(\\C)CCC(=O)O)C(=O)OC2", "pKi": 8.00}

---

target.system: Inosine-5'-monophosphate dehydrogenase 2 (Homo sapiens)
pKi: −log10 of the molar value.
Values of pKi greater than or equal to 7 map to rule met; values below map to rule not met.

{"smiles": "COc1c(C)c2c(c(O)c1C/C=C(\\C)CCC(=O)NCC(=O)O)C(=O)OC2", "classification": "rule not met"}
{"smiles": "COc1c(C)c2c(c(O)c1C/C=C(\\C)CCC(=O)OC[C@@H]1O[C@H](n3cnc4c(N)ncnc43)[C@@H](O)[C@H]1O)C(=O)OC2", "classification": "rule not met"}
{"smiles": "COc1c(C)c2c(c(O)c1C/C=C(\\C)CCC(=O)N[C@H](Cc1c[nH]c3ccccc13)C(=O)NC[C@H]1O[C@@H](n3cnc4c(N)ncnc43)[C@H](O)[C@@H]1O)C(=O)OC2", "classification": "rule met"}
{"smiles": "COc1c(C)c2c(c(O)c1CCOP(=O)(O)CP(=O)(O)OC[C@H]1O[C@@H](n3cnc4c([N+](=O)[O-])cccc43)[C@H](O)[C@@H]1O)C(=O)OC2", "classification": "rule not met"}
{"smiles": "COc1c(C)c2c(c(O)c1C/C=C(\\C)CCC(=O)N[C@@H](Cc1ccc(O)cc1)C(=O)O)C(=O)OC2", "classification": "rule not met"}

---

Consider the following compounds and their measured IC50 readings.
System: DU-145
assay.overview: Antiproliferative activity against human DU145 cells
Format: functional, cell-based

{"smiles": "COC(=O)[C@H](Cc1c[nH]c2ccccc12)NC(=O)CC/C(C)=C/Cc1c(O)c2c(c(C)c1OC)COC2=O", "IC50": "9.7 µM"}
{"smiles": "COC(=O)[C@H](CCSC)NC(=O)CC/C(C)=C/Cc1c(O)c2c(c(C)c1OC)COC2=O", "IC50": "8.7 µM"}
{"smiles": "COc1c(C)c2c(c(O)c1C/C=C(\\C)CCC(=O)N[C@H](C(=O)O)C(C)C)C(=O)OC2", "IC50": "> 100 µM"}
{"smiles": "COc1c(C)c2c(c(O)c1C/C=C(\\C)CCC(=O)NCC(=O)O)C(=O)OC2", "IC50": "> 100 µM"}
{"smiles": "COc1c(C)c2c(c(O)c1C/C=C(\\C)CCC(=O)N[C@@H](Cc1ccc(O)cc1)C(=O)O)C(=O)OC2", "IC50": "> 100 µM"}

---

Consider the following molecules and their measured IC50 readings.
System: DU-145
assay.overview: Antiproliferative activity against human DU145 cells
Type: functional, cell-based

{"smiles": "COc1c(C)c2c(c(O)c1C/C=C(\\C)CCC(=O)N[C@@H](C(=O)NC[C@H]1O[C@@H](n3cnc4c(N)ncnc43)[C@H](O)[C@@H]1O)C(C)C)C(=O)OC2", "unit.descriptor": "µM", "comparative.sign": ">", "IC50": 100}
{"smiles": "COC(=O)[C@H](Cc1ccccc1)NC(=O)CC/C(C)=C/Cc1c(O)c2c(c(C)c1OC)COC2=O", "unit.descriptor": "µM", "comparative.sign": ">", "IC50": 100}
{"smiles": "COC(=O)[C@@H](Cc1ccccc1)NC(=O)CC/C(C)=C/Cc1c(O)c2c(c(C)c1OC)COC2=O", "unit.descriptor": "µM", "comparative.sign": "=", "IC50": 10}
{"smiles": "COc1c(C)c2c(c(O)c1C/C=C(\\C)CCC(=O)N[C@@H](CCSC)C(=O)O)C(=O)OC2", "unit.descriptor": "µM", "comparative.sign": ">", "IC50": 100}
{"smiles": "COC(=O)[C@H](Cc1ccc(O)cc1)NC(=O)CC/C(C)=C/Cc1c(O)c2c(c(C)c1OC)COC2=O", "unit.descriptor": "µM", "comparative.sign": "=", "IC50": 6.3}
{"smiles": "COC(=O)[C@@H](NC(=O)CC/C(C)=C/Cc1c(O)c2c(c(C)c1OC)COC2=O)C(C)C", "unit.descriptor": "µM", "comparative.sign": "=", "IC50": 39}
{"smiles": "COc1c(C)c2c(c(O)c1C/C=C(\\C)CCC(=O)NC[C@H]1O[C@@H](n3cnc4c(N)ncnc43)[C@H](O)[C@@H]1O)C(=O)OC2", "unit.descriptor": "µM", "comparative.sign": ">", "IC50": 100}

Origin of values: ChEMBL document CHEMBL3097995
